For each of the compounds below, state its pKd.
ASSAY_TARGET: IR α 284–300 peptide of the human insulin receptor (Homo sapiens)
ASSAY_METHOD_TEXT: UV spectroscopy binding to insulin receptor peptide IR α 284–300
pKd: −log10 of the molar value.

compound CC(C)CCC[C@@H](C)[C@H]1CC[C@H]2[C@@H]3CC=C4C[C@@H](O)CC[C@]4(C)[C@H]3CC[C@]12C [Cholesterol] , pKd observed: < 3.30

Value of measured pKd for the entry C[C@]12CC[C@@H]3c4ccc(O)cc4CC[C@H]3[C@@H]1CCC2=O [Estrone] : < 3.30

// pKd value for C[C@]12CC[C@@H]3c4ccc(O)cc4CC[C@H]3[C@@H]1CC[C@@H]2O [17β-Estradiol (E2), 17β-Estradiol] : 6.05

The value of pKd measured for the compound CC(=O)[C@H]1CC[C@H]2[C@@H]3CCC4=CC(=O)CC[C@]4(C)[C@H]3CC[C@]12C [Progesterone] turned out to be < 3.30

pKd recorded for this compound, C[C@]12CC[C@@H]3c4ccc(O)cc4CC[C@H]3[C@@H]1C[C@@H](O)[C@@H]2O [Estriol] , is < 3.30

Noted for C[C@]12CCC(=O)C=C1CC[C@@H]1[C@@H]2CC[C@]2(C)C(=O)CC[C@@H]12 [Andro-stenedione, 4-andro-stenedione] : its pKd reads < 3.30
